Target: T1, Peptide A (human PAR-2), C-terminal biotinylated (Human, C-terminal biotin via G4S linker)
T1 construct: also called Peptide A C-Term
Assay: peptide ELISA
The following binders are listed with their measured OD450 values.

Answered cases to consult:
Binder	OD450
H2M618N (antibody, V domains shown, chimeric: human variable, mouse constant domains) VH: EVQLLESGGGLVQPGGSLRLSCAASGFTFRSYTMTWVRQAPGKGLDWVSGITDSGAGTYYGDSVKGRFTISRDNSKNTLYLQMNSLRAEDTAVYYCVKEGDSGYDLDYWGQGTLVTVSS VL: DIQMTQSPSSLSASVGDRVTITCRASQGISTYLAWLQQKPGKAPKSLIYATSSLQSGVPSKFSGSRSGTDFTLTISSLQPEDFATYYCQQYKSSPLTFGGGTKVEIK	1 to 4 od
H3M620N (antibody, V domains shown, chimeric: human variable, mouse constant domains) VH: EVQLVESGGNVVRPGGSLRLSCAASGFTFDDYGMTWVRQVPGKGLEWVSGINWNGGSTDYADSVKGRFTISRDNAKNSLYLQMNSLRAEDTALYYCARDKGFYGMDVWGQGTTVTVSS VL: DIVMTQSPDSLAVSLGERATINCKSSQNPLYNSNKKKYLAWYQQKPGQPPKLVIYWASTRESGVPDRFSGSGSGTDFTLTITSLQAEDVAVYYCQQYYSTPYTFGQGTKLEIK	1 to 4 od

Please look at the following binder next.
Form field OD450, entry H2M611N (antibody, V domains shown, chimeric: human variable, mouse constant domains) VH: EVQLLESGGGLVQPGGSLRLSCAASGFTFSSYAMTWVRQAPGKGLYWVSAISGSGGSAYYADSVKGRFTISRDNSKNTLYLQMNSLRAEDTAVYYCAKEGDSGYDLDYWGRGTLVTVSS VL: DIQMTQSPSSLSASVGDRVTITCRARQGISNYLAWLQQKPGKAPKSLIYAASSLQSGVPSKFSGSGSGTDFTLTISSLQPEDFATYYCQQYKSSPLTFGGGTKVEIK : 1 to 4 od

Just for reference, patent US20110059095A1 is where these values come from.
